Numbers sourced from patent US20250090699A1.

- Target under test: mouse FAP (Mus musculus, UniProt P97321)
- Construct: biotinylated His, Avi tag, mouse FAP (26-761, FAP-M82Q5); His; Avi tag (biotinylated); purchased AcroBiosystems FAP-M82Q5
- Sequence (P97321 26-761): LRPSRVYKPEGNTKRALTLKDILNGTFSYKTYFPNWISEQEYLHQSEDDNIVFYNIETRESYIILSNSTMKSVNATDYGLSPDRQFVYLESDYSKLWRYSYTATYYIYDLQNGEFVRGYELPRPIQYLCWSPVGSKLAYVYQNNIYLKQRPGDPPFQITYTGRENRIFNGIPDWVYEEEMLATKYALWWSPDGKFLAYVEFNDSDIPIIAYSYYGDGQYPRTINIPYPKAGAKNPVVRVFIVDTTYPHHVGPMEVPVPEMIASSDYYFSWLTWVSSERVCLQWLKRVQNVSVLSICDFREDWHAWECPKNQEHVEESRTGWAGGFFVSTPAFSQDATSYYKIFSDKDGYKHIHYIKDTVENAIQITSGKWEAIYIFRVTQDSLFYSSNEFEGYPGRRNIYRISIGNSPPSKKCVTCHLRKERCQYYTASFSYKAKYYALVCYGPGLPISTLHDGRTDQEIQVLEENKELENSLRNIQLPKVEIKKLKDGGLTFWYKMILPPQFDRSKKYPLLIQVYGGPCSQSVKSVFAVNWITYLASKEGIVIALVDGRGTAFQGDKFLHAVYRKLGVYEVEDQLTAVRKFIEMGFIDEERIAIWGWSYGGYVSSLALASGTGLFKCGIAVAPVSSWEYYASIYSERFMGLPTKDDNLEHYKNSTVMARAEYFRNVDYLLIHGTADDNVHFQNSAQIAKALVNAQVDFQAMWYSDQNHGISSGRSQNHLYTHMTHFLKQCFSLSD
- Method: Surface plasmon resonance (SPR) for peptide affinity, mouse FAP
- Type: binding
Structures can show the parent of a compound that is named as a salt. Starred links: 1 amine or outer side, 2 acyl side, 3 side chain; linkers in the order of their positions; H or OH if unused. Non-standard residues stand in square brackets, D forms with d. Residues, ends and D or L forms follow the SMILES beside them. Groups on a side chain read outwards from the residue. *: point of attachment. DOTA = O=C(O)CN1CCN(CC(=O)O)CCN(CC(=O)*)CCN(CC(=O)O)CC1; Phe(4-CH2NH2) = NCc1ccc(C[C@H](N)C(=O)O)cc1; Piperazinyl(4-CH2COOH) = O=C(O)CN1CCN(*)CC1; AEF = NCCOc1ccc(C[C@H](N)C(=O)O)cc1; NMeF = CN[C@@H](Cc1ccccc1)C(=O)O; Aoc(2) = CCCCCC[C@H](N)C(=O)O; Ahp(2) = CCCCC[C@H](N)C(=O)O; AEEA = NCCOCCOCC(=O)O; CO = O=C([*:1])[*:2]

| Compound | Kd |
| --- | --- |
| CCCCC[C@@H]1NC(=O)[C@H](Cc2ccc(OCCN)cc2)NC(=O)[C@H](Cc2ccccc2)N(C)C(=O)CNC(=O)CNC(=O)[C@H]2CCCN2C(=O)[C@H](CC(=O)O)NC(=O)[C@H](Cc2ccc(O)cc2)NC(=O)CNC(=O)[C@H](Cc2c[nH]c3ccccc23)NC1=O [Example A59, TFA salt] (cyclo([AEF][Ahp(2)]WGYD[dP]GG[NMeF])) | 0.38 nM |
| CCCCC[C@@H]1NC(=O)[C@H](Cc2ccc(OCCNC(=O)CN3CCN(CC(=O)O)CCN(CC(=O)O)CCN(CC(=O)O)CC3)cc2)NC(=O)[C@H](Cc2ccccc2)N(C)C(=O)CNC(=O)CNC(=O)[C@H]2CCCN2C(=O)[C@H](CC(=O)O)NC(=O)[C@H](Cc2ccc(O)cc2)NC(=O)CNC(=O)[C@H](Cc2c[nH]c3ccccc23)NC1=O [Example B23, TFA salt] (cyclo([AEF](DOTA)[Ahp(2)]WGYD[dP]GG[NMeF])) | 0.077 nM |
| CCCCCC[C@@H]1NC(=O)[C@H](Cc2ccc(CNC(=O)COCCOCCNC(=O)CN3CCN(CC(=O)O)CCN(CC(=O)O)CCN(CC(=O)O)CC3)cc2)NC(=O)[C@H](Cc2ccccc2)N(C)C(=O)CNC(=O)CNC(=O)[C@H]2CCCN2C(=O)[C@H](CC(=O)O)NC(=O)[C@H](CCCCNC(=O)N2CCN(CC(=O)O)CC2)NC(=O)CNC(=O)[C@H](Cc2c[nH]c3ccccc23)NC1=O [Example B1] (cyclo(GG[NMeF][Phe(4-CH2NH2)]([AEEA-DOTA])[Aoc(2)]WGK([CO-Piperazinyl(4-CH2COOH)])D[dP])) | < 0.018 nM |

----------
- Target under test: human FAP (Homo sapiens)
- Sequence (Q12884 26-760): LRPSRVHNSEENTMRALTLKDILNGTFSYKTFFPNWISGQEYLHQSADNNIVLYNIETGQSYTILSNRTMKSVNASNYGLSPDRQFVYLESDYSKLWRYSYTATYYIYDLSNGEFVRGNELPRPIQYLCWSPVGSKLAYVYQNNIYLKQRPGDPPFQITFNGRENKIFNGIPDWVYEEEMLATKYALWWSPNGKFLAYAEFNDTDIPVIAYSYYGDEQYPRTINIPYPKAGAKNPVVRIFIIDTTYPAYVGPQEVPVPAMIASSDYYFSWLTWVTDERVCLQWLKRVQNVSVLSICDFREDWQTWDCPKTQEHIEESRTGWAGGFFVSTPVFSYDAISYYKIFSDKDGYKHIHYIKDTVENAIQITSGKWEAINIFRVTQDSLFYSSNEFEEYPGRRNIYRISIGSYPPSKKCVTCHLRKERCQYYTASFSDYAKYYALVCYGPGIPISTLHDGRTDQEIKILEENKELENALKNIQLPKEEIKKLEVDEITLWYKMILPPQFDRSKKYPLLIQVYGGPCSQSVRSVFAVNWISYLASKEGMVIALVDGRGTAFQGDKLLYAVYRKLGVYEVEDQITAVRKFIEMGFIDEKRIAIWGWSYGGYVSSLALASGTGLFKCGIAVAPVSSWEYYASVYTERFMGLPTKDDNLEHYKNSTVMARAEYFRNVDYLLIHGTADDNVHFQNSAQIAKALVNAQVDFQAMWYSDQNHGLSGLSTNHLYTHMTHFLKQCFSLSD
pIC50: −log10 of the molar value. Structures can show the parent of a compound that is named as a salt. Starred links: 1 amine or outer side, 2 acyl side, 3 side chain; linkers in the order of their positions; H or OH if unused. Non-standard residues stand in square brackets, D forms with d. Residues, ends and D or L forms follow the SMILES beside them. Groups on a side chain read outwards from the residue. *: point of attachment. Nicotinoyl(6-NMe3+) = C[N+](C)(C)c1ccc(C(=O)*)cn1; Phe(4-CH2NH2) = NCc1ccc(C[C@H](N)C(=O)O)cc1; Piperazinyl(4-CH2COOH) = O=C(O)CN1CCN(*)CC1; AEF = NCCOc1ccc(C[C@H](N)C(=O)O)cc1; X10 = O=C([C@H]1COCCN1[*:1])[*:2]; NMeF = CN[C@@H](Cc1ccccc1)C(=O)O; Aoc(2) = CCCCCC[C@H](N)C(=O)O; Ahp(2) = CCCCC[C@H](N)C(=O)O; hSer = N[C@@H](CCO)C(=O)O; Nphe = O=C(O)CNCc1ccccc1; AEEA = NCCOCCOCC(=O)O; CO = O=C([*:1])[*:2]; Propyl = CCC*
Some molecules, each annotated with its measured pIC50.

| Molecule | pIC50 |
| --- | --- |
| CCCCC[C@@H]1NC(=O)[C@H](Cc2ccc(O)cc2)NC(=O)[C@H](Cc2ccccc2)N(C)C(=O)CNC(=O)[C@H](CC(=O)O)NC(=O)[C@H]2CCCN2C(=O)[C@H](CC(=O)O)NC(=O)[C@H](Cc2ccc(O)cc2)NC(=O)CNC(=O)[C@H](Cc2c[nH]c3ccccc23)NC1=O [Example A18] (cyclo([Ahp(2)]WGYD[dP]DG[NMeF]Y)) | 9.57 |
| CCCCC[C@@H]1NC(=O)[C@H](Cc2ccc(O)cc2)NC(=O)[C@H](Cc2ccccc2)N(C)C(=O)CNC(=O)CNC(=O)[C@H]2CCCN2C(=O)[C@H](CC(=O)O)NC(=O)CN(Cc2ccccc2)C(=O)CNC(=O)[C@H](Cc2c[nH]c3ccccc23)NC1=O [Example A74] (cyclo(GG[NMeF]Y[Ahp(2)]WG[Nphe]D[dP])) | 8.85 |
| CCCOCC[C@@H]1NC(=O)[C@H](Cc2ccc(CNC(=O)COCCOCCNC(=O)c3ccc([N+](C)(C)C)nc3)cc2)NC(=O)[C@H](Cc2ccccc2)N(C)C(=O)CNC(=O)CNC(=O)[C@H]2CCCN2C(=O)[C@H](CC(=O)O)NC(=O)[C@H](CCCCNC(=O)N2CCN(CC(=O)O)CC2)NC(=O)CNC(=O)[C@H](Cc2c[nH]c3ccccc23)NC1=O [Example C58] (cyclo(D[dP]GG[NMeF][Phe(4-CH2NH2)]([AEEA-Nicotinoyl(6-NMe3+)])[hSer](Propyl)WGK([CO-Piperazinyl(4-CH2COOH)]))) | 11.22 |
| CCCCCC[C@@H]1NC(=O)[C@H](Cc2ccc(O)cc2)NC(=O)[C@H](Cc2ccccc2)N(C)C(=O)CNC(=O)[C@H](CCCCN)NC(=O)[C@H]2CCCN2C(=O)[C@H](CC(=O)O)NC(=O)[C@H](Cc2ccc(O)cc2)NC(=O)CNC(=O)[C@H](Cc2c[nH]c3ccccc23)NC1=O [Example A31, TFA salt] (cyclo([Aoc(2)]WGYD[dP]KG[NMeF]Y)) | 10.40 |
| CCCCC[C@@H]1NC(=O)[C@H](Cc2ccc(OCCN)cc2)NC(=O)[C@H](Cc2ccccc2)N(C)C(=O)CNC(=O)[C@H](CCCCNC(=O)N2CCN(CC(=O)O)CC2)NC(=O)[C@H]2CCCN2C(=O)[C@H](CC(=O)O)NC(=O)[C@H](Cc2ccc(O)cc2)NC(=O)CNC(=O)[C@H](Cc2c[nH]c3ccccc23)NC1=O [Example A46, TFA salt] (cyclo([AEF][Ahp(2)]WGYD[dP]K([CO-Piperazinyl(4-CH2COOH)])G[NMeF])) | 9.30 |
| CCCCC[C@@H]1NC(=O)[C@H](Cc2ccc(O)cc2)NC(=O)[C@H](Cc2ccccc2)N(C)C(=O)CNC(=O)CNC(=O)[C@H]2COCCN2C(=O)[C@H](CC(=O)O)NC(=O)[C@H](Cc2ccc(O)cc2)NC(=O)CNC(=O)[C@H](Cc2c[nH]c3ccccc23)NC1=O [Example A63] (cyclo([Ahp(2)]WGYD[X10]GG[NMeF]Y)) | 7.82 |
